# Test target: UniProt P41972
# Sequence (P41972 whole entry): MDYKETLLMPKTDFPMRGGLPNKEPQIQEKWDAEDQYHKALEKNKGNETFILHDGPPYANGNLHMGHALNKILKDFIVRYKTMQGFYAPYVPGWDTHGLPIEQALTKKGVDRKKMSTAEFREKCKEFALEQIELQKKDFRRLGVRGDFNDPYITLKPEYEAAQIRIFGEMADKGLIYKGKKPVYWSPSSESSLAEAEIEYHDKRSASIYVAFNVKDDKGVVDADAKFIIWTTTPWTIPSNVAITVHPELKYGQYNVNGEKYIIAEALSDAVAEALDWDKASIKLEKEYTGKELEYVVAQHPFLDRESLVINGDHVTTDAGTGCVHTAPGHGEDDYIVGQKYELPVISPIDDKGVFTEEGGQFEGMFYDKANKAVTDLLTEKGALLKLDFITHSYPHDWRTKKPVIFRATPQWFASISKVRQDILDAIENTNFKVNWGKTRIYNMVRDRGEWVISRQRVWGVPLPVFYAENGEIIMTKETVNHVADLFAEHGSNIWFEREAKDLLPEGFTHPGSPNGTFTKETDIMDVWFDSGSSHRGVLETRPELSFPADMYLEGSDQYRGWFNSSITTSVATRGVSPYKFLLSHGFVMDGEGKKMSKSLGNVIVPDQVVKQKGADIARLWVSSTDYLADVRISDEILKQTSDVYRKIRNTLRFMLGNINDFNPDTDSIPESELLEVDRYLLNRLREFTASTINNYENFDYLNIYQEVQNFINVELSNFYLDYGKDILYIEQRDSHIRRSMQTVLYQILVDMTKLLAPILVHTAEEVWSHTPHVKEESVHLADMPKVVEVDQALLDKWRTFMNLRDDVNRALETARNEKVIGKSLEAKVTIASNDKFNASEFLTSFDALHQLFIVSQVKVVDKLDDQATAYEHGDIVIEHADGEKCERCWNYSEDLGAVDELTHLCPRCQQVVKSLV
# Experimental details: Inhibitory activity against isoleucyl-tRNA synthetase (IRS) of Staphylococcus aureus 11481
Assay metric: pIC50
Kindly note that pIC50 refers to -log10 of the concentration in mol/L and answer with the value alone.

Ask | Please list pIC50 recorded for the compound C/C(=C\C(=O)OCCCCCCCCC(=O)O)C[C@@H]1OC[C@H](C[C@@H]2O[C@H]2[C@@H](C)[C@H](C)O)[C@@H](O)[C@H]1O
Reply | 6.55

* * *

# Test system: Proteus mirabilis
# Experimental details: compound was tested for antibacterial activity against Pr. mirabilis C889.
# Assay type: functional
Recorded MIC values for a group of molecules are listed next.

Solved entries (count: 5):
>>> reading("C/C(=C\\c1ncc(-c2csc([N+](=O)[O-])c2)o1)C[C@@H]1OC[C@H](C[C@@H]2O[C@H]2[C@@H](C)[C@H](C)O)[C@@H](O)[C@H]1O")
"64 µg/mL"
>>> reading("C/C(=C\\c1ncc(-c2ncc([N+](=O)[O-])n2C)o1)C[C@@H]1OC[C@H](C[C@@H]2O[C@H]2[C@@H](C)[C@H](C)O)[C@@H](O)[C@H]1O")
"> 64 µg/mL"
>>> reading("C/C(=C\\c1ncc(-c2cc([N+](=O)[O-])cs2)o1)C[C@@H]1OC[C@H](C[C@@H]2O[C@H]2[C@@H](C)[C@H](C)O)[C@@H](O)[C@H]1O")
"64 µg/mL"
>>> reading("C/C(=C\\c1ncc(-c2ccc([N+](=O)[O-])cc2)o1)C[C@@H]1OC[C@H](C[C@@H]2O[C@H]2[C@@H](C)[C@H](C)O)[C@@H](O)[C@H]1O")
"> 64 µg/mL"
>>> reading("C/C(=C\\c1ncc(-c2ccc([N+](=O)[O-])o2)o1)C[C@@H]1OC[C@H](C[C@@H]2O[C@H]2[C@@H](C)[C@H](C)O)[C@@H](O)[C@H]1O")
"> 64 µg/mL"

Ask | Please list MIC recorded for the molecule C/C(=C\C(=O)OCCCCCCCCC(=O)O)C[C@@H]1OC[C@H](C[C@@H]2O[C@H]2[C@@H](C)[C@H](C)O)[C@@H](O)[C@H]1O
Reply | > 64 µg/mL

Ask | Please list MIC recorded for the molecule C/C(=C\c1ncc(-c2ccc([N+](=O)[O-])s2)o1)C[C@@H]1OC[C@H](C[C@@H]2O[C@H]2[C@@H](C)[C@H](C)O)[C@@H](O)[C@H]1O
Reply | > 64 µg/mL
